Target: Biotinylated recombinant human CD3εδ (Acro Biosystems, CDD-H82W6) (human) (UniProt P07766)
Sequence (P07766 23-126, stated change not applied, chain 1 of 2): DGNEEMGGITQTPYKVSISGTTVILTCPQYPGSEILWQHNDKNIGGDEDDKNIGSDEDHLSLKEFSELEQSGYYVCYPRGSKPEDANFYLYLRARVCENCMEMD
Sequence (P04234 22-105, stated change not applied, chain 2 of 2, further chain): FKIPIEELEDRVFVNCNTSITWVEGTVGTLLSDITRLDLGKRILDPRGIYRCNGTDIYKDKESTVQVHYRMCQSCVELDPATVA
Assay: Octet BLI, biotinylated CD3εδ on streptavidin sensors, 1:1 model
Item-by-item account of koff
measured-attribute: koff (s⁻¹)

INSERT INTO results (binder, measured_attribute, unit_annotation, assay_result) VALUES
  ('EGFR-CD3 DuetMab with anti-CD3 variant AZ Vκ 29 + AZ VH SN75 (bispecific antibody, part only; not given: anti-EGFR arm, constant regions, V domains shown, not shown: another chain or arm of the molecule; a dimerising Fc or GST; small tags and cut ends) VH: EVQLVESGGALVKPGGSLRLSCAASGFTFSNAWMHWVRQAPGKQLEWVAQIKDRSQTYATYYAESVKGRFTISRDDSKNTLYLQMNSLKTEDTAVYYCRGVYYANAPFDYWGQGTLVTVSS VL: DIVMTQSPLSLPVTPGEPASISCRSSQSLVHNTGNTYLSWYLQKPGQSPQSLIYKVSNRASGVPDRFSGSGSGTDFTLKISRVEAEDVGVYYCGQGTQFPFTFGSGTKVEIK', 'koff', 's⁻¹', 0.0282),
  ('EGFR-CD3 DuetMab with anti-CD3 variant AZ Vκ 26 + AZ VH R82 (bispecific antibody, part only; not given: anti-EGFR arm, constant regions, V domains shown, not shown: another chain or arm of the molecule; a dimerising Fc or GST; small tags and cut ends) VH: EVQLVESGGALVKPGGSLRLSCAASGFTFTRAWMHWVRQAPGKQLEWVAQIKDRSQTYATYYAESVKGRFTISRDDSKNTLYLQMNSLKTEDTAVYYCRGVYYANTPFDYWGQGTLVTVSS VL: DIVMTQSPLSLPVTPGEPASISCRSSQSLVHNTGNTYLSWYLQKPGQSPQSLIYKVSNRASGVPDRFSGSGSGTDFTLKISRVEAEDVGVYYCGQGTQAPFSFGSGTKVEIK', 'koff', 's⁻¹', 0.00711),
  ('EGFR-CD3 DuetMab with anti-CD3 variant AZ Vκ 26 + AZ VH E79 (bispecific antibody, part only; not given: anti-EGFR arm, constant regions, V domains shown, not shown: another chain or arm of the molecule; a dimerising Fc or GST; small tags and cut ends) VH: EVQLVESGGALVKPGGSLRLSCAASGFTFTEAWMHWVRQAPGKQLEWVAQIKDRSQTYATYYAESVKGRFTISRDDSKNTLYLQMNSLKTEDTAVYYCRGVYYAVTPFDYWGQGTLVTVSS VL: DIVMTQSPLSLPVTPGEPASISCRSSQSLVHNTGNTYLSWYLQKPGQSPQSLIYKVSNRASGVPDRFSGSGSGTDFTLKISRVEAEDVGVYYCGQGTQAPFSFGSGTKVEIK', 'koff', 's⁻¹', 0.0511);

Recorded values, source patent US20250019438A1.
